The measurements presented in this section are drawn from ChEMBL document CHEMBL4483862.

Test system: Plasmodium berghei
Assay: Luciferase/luciferin-expressing antifolate-resistant parasites were used to infect a culture of HepG2 cells that were pre-incubated with compounds. Infected hepatocytes emit light due to the luciferase reaction. Assay results are presented as the percent inhibition of light emission compared to control. […]
Type: functional
Conditions: sporozoite, HEPG2TOX_HILL_SLOPE 3.71, HEPG2TOX_R_SQUARED 0.507, PBLUC_HILL_SLOPE 2.96, PBLUC_R_SQUARED 0.697, read-out: LUCIFERASE INFECTION ASSAY - IC50
value type: pIC50
One number for each entry, as −log10 of the molar value.

Challenge: Quick check: pIC50 of `CCc1ccc(NC(=O)C[n+]2c3n(c4c(F)c(F)ccc42)CCCCC3)cc1` ?
Response given: 5.35

====

Test system: Plasmodium berghei
Assay: Luciferase/luciferin-expressing antifolate-resistant parasites were used to infect a culture of HepG2 cells that were pre-incubated with compounds. Infected hepatocytes emit light due to the luciferase reaction. Assay results are presented as the percent inhibition of light emission compared to control. […]
Format: functional
Conditions: sporozoite, HEPG2TOX_HILL_SLOPE 15.4, HEPG2TOX_R_SQUARED 0.156, PBLUC_HILL_SLOPE 4.31, PBLUC_R_SQUARED 0.169, read-out: LUCIFERASE INFECTION ASSAY - IC50
value type: IC50 (µM)
One number for each entry, in µM.

Challenge: // lookup IC50 for `COc1cc(-c2nc3ccc(NC(=O)Nc4cccc(C(F)(F)F)c4)cn3n2)cc(OC)c1OC`
Response given: 5.06

====

System: Plasmodium berghei
Experiment: Luciferase/luciferin-expressing antifolate-resistant parasites were used to infect a culture of HepG2 cells that were pre-incubated with compounds. Infected hepatocytes emit light due to the luciferase reaction. Assay results are presented as the percent inhibition of light emission compared to control. […]
Assay type: functional
Conditions: sporozoite, FFLUC_HILL_SLOPE 35.5, FFLUC_R_SQUARED 0.403, HEPG2TOX_HILL_SLOPE 0.192, HEPG2TOX_R_SQUARED 0.301, PBLUC_HILL_SLOPE 13.6, PBLUC_R_SQUARED 0.349, read-out: LUCIFERASE INFECTION ASSAY - IC50
value type: IC50 (µM)
One number for each entry, in µM.

Challenge: // lookup IC50 for `Cc1cc(-c2cccc3[nH]c(C(F)(F)F)nc23)nn1C(=O)c1ccc([N+](=O)[O-])cc1`
Response given: 9.27

====

System: Plasmodium berghei
Assay: Luciferase/luciferin-expressing antifolate-resistant parasites were used to infect a culture of HepG2 cells that were pre-incubated with compounds. Infected hepatocytes emit light due to the luciferase reaction. Assay results are presented as the percent inhibition of light emission compared to control. […]
Assay type: functional
Details: sporozoite, HEPG2TOX_HILL_SLOPE 9.38, HEPG2TOX_R_SQUARED 0.741, PBLUC_HILL_SLOPE 14.6, PBLUC_R_SQUARED 0.427, read-out: LUCIFERASE INFECTION ASSAY - IC50
value type: pIC50
Answers are plain numbers, as −log10 of the molar value.

Challenge: Tell me reported pIC50 for `CCN(CC)c1ccc(C(=O)NNS(=O)(=O)c2c(F)cc(F)c(Cl)c2F)cc1` , tested with Plasmodium berghei.
Response given: 5.04

====

Test system: Plasmodium berghei
Assay: Luciferase/luciferin-expressing antifolate-resistant parasites were used to infect a culture of HepG2 cells that were pre-incubated with compounds. Infected hepatocytes emit light due to the luciferase reaction. Assay results are presented as the percent inhibition of light emission compared to control. […]
Type: functional
Settings: sporozoite, PBLUC_HILL_SLOPE 6.07, PBLUC_R_SQUARED 0.112, read-out: LUCIFERASE INFECTION ASSAY - IC50
value type: IC50 (µM)
One number for each entry, in µM.

Challenge: Identify the measured IC50 of `Cc1nn2c(nc(Sc3nnnn3C(C)C)c3ccccc32)c1Cl` for Plasmodium berghei.
Response given: 8.31

====

System: Plasmodium berghei
Assay: Luciferase/luciferin-expressing antifolate-resistant parasites were used to infect a culture of HepG2 cells that were pre-incubated with compounds. Infected hepatocytes emit light due to the luciferase reaction. Assay results are presented as the percent inhibition of light emission compared to control. […]
Type: functional
Conditions: sporozoite, PBLUC_HILL_SLOPE 2.27, PBLUC_R_SQUARED 0.551, read-out: LUCIFERASE INFECTION ASSAY - IC50
value type: IC50 (µM)
One number for each entry, in µM.

Challenge: Sample `FC(F)(F)Oc1cccc(-c2cnc3sc(NCCN4CCOCC4)nn23)c1` — what was its IC50?
Response given: 5.39

====

Tested on: Plasmodium berghei
Assay: Luciferase/luciferin-expressing antifolate-resistant parasites were used to infect a culture of HepG2 cells that were pre-incubated with compounds. Infected hepatocytes emit light due to the luciferase reaction. Assay results are presented as the percent inhibition of light emission compared to control. […]
Type: functional
Conditions: sporozoite, FFLUC_HILL_SLOPE 1.33, FFLUC_R_SQUARED 0.515, PBLUC_HILL_SLOPE 1.27, PBLUC_R_SQUARED 0.667, read-out: LUCIFERASE INFECTION ASSAY - IC50
value type: IC50 (µM)
Give bare numbers, in µM.

Challenge: Which IC50 reading was recorded for the compound `Cc1c(-c2ccccc2)nc2ccccc2c1C(=O)Nc1ccc2c(c1)OCCO2` ?
Response given: 1.19

====

Tested on: Plasmodium berghei
Test: Luciferase/luciferin-expressing antifolate-resistant parasites were used to infect a culture of HepG2 cells that were pre-incubated with compounds. Infected hepatocytes emit light due to the luciferase reaction. Assay results are presented as the percent inhibition of light emission compared to control. […]
Format: functional
Settings: sporozoite, PBLUC_HILL_SLOPE 15.3, PBLUC_R_SQUARED 0.212, read-out: LUCIFERASE INFECTION ASSAY - IC50
value type: pIC50
Give bare numbers, as −log10 of the molar value.

Challenge: Would you mind telling me what pIC50 value was observed for `CC(C)C(=O)N1CCN(c2nc(CSc3ccccc3)nc3sc4c(c23)CCCC4)CC1` ?
Response given: 5.06

====

System: Plasmodium berghei
Experiment: Luciferase/luciferin-expressing antifolate-resistant parasites were used to infect a culture of HepG2 cells that were pre-incubated with compounds. Infected hepatocytes emit light due to the luciferase reaction. Assay results are presented as the percent inhibition of light emission compared to control. […]
Assay type: functional
Settings: sporozoite, FFLUC_HILL_SLOPE 1.4, FFLUC_R_SQUARED 0.0106, PBLUC_HILL_SLOPE 1.41, PBLUC_R_SQUARED 0.709, read-out: LUCIFERASE INFECTION ASSAY - IC50
value type: pIC50
Numbers only, as −log10 of the molar value.

Challenge: Quick one: pIC50 of `Cc1cc(C(=O)NCc2nnc3ccccn23)c(C)n1C1CCCCC1` ?
Response given: 5.86

====

Test system: Plasmodium berghei
Experiment: Luciferase/luciferin-expressing antifolate-resistant parasites were used to infect a culture of HepG2 cells that were pre-incubated with compounds. Infected hepatocytes emit light due to the luciferase reaction. Assay results are presented as the percent inhibition of light emission compared to control. […]
Assay type: functional
Settings: sporozoite, PBLUC_HILL_SLOPE 11, PBLUC_R_SQUARED 0.35, read-out: LUCIFERASE INFECTION ASSAY - IC50
value type: IC50 (µM)
Give bare numbers, in µM.

Challenge: Please tell me: IC50 of `CNc1nnc(Sc2ncnc3ccsc23)s1` , system Plasmodium berghei?
Response given: 7.71

====

Tested on: Plasmodium berghei
Assay: Luciferase/luciferin-expressing antifolate-resistant parasites were used to infect a culture of HepG2 cells that were pre-incubated with compounds. Infected hepatocytes emit light due to the luciferase reaction. Assay results are presented as the percent inhibition of light emission compared to control. […]
Assay type: functional
Conditions: sporozoite, HEPG2TOX_HILL_SLOPE 8.57, HEPG2TOX_R_SQUARED 0.595, PBLUC_HILL_SLOPE 12.7, PBLUC_R_SQUARED 0.201, read-out: LUCIFERASE INFECTION ASSAY - IC50
value type: IC50 (µM)
Give bare numbers, in µM.

Challenge: Write down the reported IC50 of `CC(C)(C)c1ccc(-c2csc(NC(=O)c3cnccn3)n2)cc1` , test system: Plasmodium berghei.
Response given: 9.05

====

Tested on: Plasmodium berghei
Experiment: Luciferase/luciferin-expressing antifolate-resistant parasites were used to infect a culture of HepG2 cells that were pre-incubated with compounds. Infected hepatocytes emit light due to the luciferase reaction. Assay results are presented as the percent inhibition of light emission compared to control. […]
Assay type: functional
Conditions: sporozoite, FFLUC_HILL_SLOPE 0.303, FFLUC_R_SQUARED 0.675, read-out: LUCIFERASE INFECTION ASSAY - IC50
value type: IC50

Challenge: Suppose we examine the compound CC(=O)Nc1ccc2c(COC(=O)C(CC(C)C)NC(=O)c3ccc(Cl)cc3)cc(=O)oc2c1 (stereo unspecified) ; what IC50 value has been reported?
Response given: > 10 µM
